system: SNB-75 CNS; experiment: NCI tumour cell line growth inhibition, 48 h
measuredMetric: log10 TGI (log10 of the value in µM)
Units before log transform: µM; reported quantity: TGI; transform: log10.

Use the examples below as a reference point.
compound	measuredMetric	dataValue
CN(C)CCn1c(=O)c2ccc(NCCN3CCNCC3)c3c(=O)c4ccccc4n(c1=O)c23	log10 TGI	1.00
Cc1cc(N2CCOCC2)nc(N[C@@H]2CCC[C@H](Nc3ccnc4cc(Cl)ccc34)C2)n1	log10 TGI	0.60
COC(=O)c1cc(O)c2cc3c(cc2c1-c1cc(OC)c(OC)c(OC)c1)OCO3	log10 TGI	1.51
COc1cccc(NC(=O)c2sc3nc(C)c(C(O)c4ccccc4)cc3c2N)c1 (stereo not drawn)	log10 TGI	0.66
Cc1c(N2CCN(C)CC2)nc2ccc(Cl)cc2c1-c1ccccc1	log10 TGI	1.56

The recorded log10 TGI for CC(C)=CC(Cc1ccccc1)S(=O)(=O)c1nc2ccccc2s1 (stereo not drawn) is 1.61

Consider C[C@]12CC/C(=N\O)C=C1CC[C@@H]1C2CC[C@@]2(C)C1CC[C@@H]2OC1CCCCO1 (stereo partly drawn) . Its measured log10 TGI is 1.52

log10 TGI recorded for this compound, O=C(CCN1CCN(c2ccccc2)CC1)N1CCc2c([nH]c3ccccc23)C1c1cccnc1 (stereo not drawn) , is 1.73

Values from PubChem BioAssay (NCI)
